study.target: α1β2γ2 GABAA subtype receptor (Homo sapiens, UniProt P14867+P18507)
Sequence (P14867 28-456, one chain of several): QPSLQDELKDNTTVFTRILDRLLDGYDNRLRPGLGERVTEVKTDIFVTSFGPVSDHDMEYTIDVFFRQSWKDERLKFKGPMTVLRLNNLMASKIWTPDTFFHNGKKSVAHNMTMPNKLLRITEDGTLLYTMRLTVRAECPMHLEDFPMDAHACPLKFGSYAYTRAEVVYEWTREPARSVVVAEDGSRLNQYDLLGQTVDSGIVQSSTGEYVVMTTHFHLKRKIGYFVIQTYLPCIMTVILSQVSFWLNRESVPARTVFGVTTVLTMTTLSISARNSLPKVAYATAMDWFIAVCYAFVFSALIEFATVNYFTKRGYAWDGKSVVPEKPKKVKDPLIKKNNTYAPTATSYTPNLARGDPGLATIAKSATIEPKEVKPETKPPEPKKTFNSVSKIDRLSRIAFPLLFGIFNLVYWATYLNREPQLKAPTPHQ
Sequence (P47870 25-512 partner limits assumed, one chain of several): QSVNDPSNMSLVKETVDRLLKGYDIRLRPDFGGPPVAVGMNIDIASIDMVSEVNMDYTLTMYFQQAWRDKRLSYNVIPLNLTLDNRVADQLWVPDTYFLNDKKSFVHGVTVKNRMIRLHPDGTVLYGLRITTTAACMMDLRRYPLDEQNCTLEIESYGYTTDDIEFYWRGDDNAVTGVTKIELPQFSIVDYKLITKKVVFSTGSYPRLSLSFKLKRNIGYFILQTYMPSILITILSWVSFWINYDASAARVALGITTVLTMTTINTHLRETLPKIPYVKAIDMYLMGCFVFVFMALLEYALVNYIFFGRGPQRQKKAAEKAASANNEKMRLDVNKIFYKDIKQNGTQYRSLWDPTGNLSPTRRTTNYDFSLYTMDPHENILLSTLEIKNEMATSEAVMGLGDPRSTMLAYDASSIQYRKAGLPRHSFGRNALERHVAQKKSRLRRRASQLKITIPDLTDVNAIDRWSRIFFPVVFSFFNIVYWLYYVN
measurement.protocol: cell-based
condition.summary: Xenopus laevis oocytes, human subunits, GABA at EC10; negative = inverse agonism
Experimental: The in vitro efficacy and EC50 value of the test compound may be determined by measuring the chloride flux at the surface of a cell expressing the α,β, and γ subunits of the GABAA receptor in response to GABA by the two electrode voltage-clamp technique. […] Specificity of a compound for the Ro15-1788 site is determined following completion of the concentration/effect curve. […] Percent change due to addition of compound is calculated as described above. […]
value.kind: oocyte electrophysiology maximum potentiation α1β2γ2
Write your answer as a measured quantity: the number, then the unit.

Recorded results for 2 compounds are shown here.
compound: CNCc1ccc(NC(=O)c2c[nH]c3c2C(=O)CCCC3)cc1
recorded.measurement: 23%
//
compound: O=c1c(-c2ccccc2F)nc2c[nH]c3ccccc3n1-2
recorded.measurement: 18%

Record request: oocyte electrophysiology maximum potentiation α1β2γ2 value, item CCOc1ccc(-n2c(=O)c3c[nH]c4ccccc4n-3c2=O)cc1 12%

Look up oocyte electrophysiology maximum potentiation α1β2γ2 for this compound: CC1CC(=O)c2c(C(=O)Nc3ccc(F)cc3)c[nH]c2C1 (centres unmarked) 17%

Look at this compound and give its reported oocyte electrophysiology maximum potentiation α1β2γ2. c1cc2c(cc1-c1ncc3[nH]c4c(c3n1)CCCC4)OCO2 33%

Bench note: what oocyte electrophysiology maximum potentiation α1β2γ2 did O=c1[nH]c2c(n1-c1nc3ccc(F)c(F)c3o1)CCCCC2 show? 18%

Given O=C(Nc1ccc(OCCO)cc1)c1c[nH]c2c1C(=O)CCC2 , state its recorded oocyte electrophysiology maximum potentiation α1β2γ2. 15%

Please give the measured oocyte electrophysiology maximum potentiation α1β2γ2 for this compound: O=C1C2C=Nc3ccccc3C2=NN1c1ccccc1 (centres unmarked) [CGS 8216, reference compound] −26%

====

study.target: α1β2γ2 GABAA subtype receptor (Homo sapiens, UniProt P14867+P18507)
measurement.protocol: cell-based
condition.summary: Xenopus laevis oocytes, human subunits, GABA at EC10; read-out: oocyte electrophysiology EC50 α1β2γ2
value.kind: pEC50
Here pEC50 is given on a logarithmic scale as minus log10 of the concentration in mol/L.

Solved cases (2 shown):
smiles.representation: CCOc1ccc(NC(=O)c2c[nH]c3c2C(=O)CCC3)cc1
pEC50: 6.97
--
smiles.representation: CNCc1ccc(NC(=O)c2c[nH]c3c2C(=O)CCCC3)cc1
pEC50: 6.97

Shifting focus to the compound that follows.
Give pEC50 (α1β2γ2 GABAA subtype receptor (Homo sapiens, UniProt P14867+P18507)) of the following compound: CCOc1ccc(-n2c(=O)c3c[nH]c4ccccc4n-3c2=O)cc1 6.80

====

study.target: α3β3γ2 GABAA subtype receptor (Homo sapiens, UniProt P18507+P34903)
Sequence (P34903 29-492): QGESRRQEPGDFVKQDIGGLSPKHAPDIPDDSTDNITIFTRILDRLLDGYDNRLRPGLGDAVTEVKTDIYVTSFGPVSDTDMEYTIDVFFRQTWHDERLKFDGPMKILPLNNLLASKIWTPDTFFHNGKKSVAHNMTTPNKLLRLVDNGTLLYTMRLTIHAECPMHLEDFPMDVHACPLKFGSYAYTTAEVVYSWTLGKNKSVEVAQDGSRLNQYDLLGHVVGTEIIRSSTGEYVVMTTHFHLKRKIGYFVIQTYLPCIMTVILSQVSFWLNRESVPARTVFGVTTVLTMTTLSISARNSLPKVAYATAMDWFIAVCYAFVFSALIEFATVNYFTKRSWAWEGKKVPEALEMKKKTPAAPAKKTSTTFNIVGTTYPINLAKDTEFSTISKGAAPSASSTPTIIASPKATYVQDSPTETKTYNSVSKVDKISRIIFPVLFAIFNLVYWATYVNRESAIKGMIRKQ
Sequence (P28472 26-473 partner): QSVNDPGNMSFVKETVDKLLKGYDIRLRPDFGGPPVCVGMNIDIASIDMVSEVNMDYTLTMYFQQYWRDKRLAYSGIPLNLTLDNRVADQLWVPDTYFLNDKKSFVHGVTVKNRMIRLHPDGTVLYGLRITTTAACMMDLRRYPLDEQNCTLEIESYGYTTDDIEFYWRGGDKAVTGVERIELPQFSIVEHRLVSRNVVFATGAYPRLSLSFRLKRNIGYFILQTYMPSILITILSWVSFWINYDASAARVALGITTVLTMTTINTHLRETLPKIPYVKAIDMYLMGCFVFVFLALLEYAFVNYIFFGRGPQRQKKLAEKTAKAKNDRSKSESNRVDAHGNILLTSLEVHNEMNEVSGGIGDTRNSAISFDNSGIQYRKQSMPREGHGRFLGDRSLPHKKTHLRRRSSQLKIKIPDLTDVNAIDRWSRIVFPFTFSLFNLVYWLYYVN
Sequence (P18507 40-475): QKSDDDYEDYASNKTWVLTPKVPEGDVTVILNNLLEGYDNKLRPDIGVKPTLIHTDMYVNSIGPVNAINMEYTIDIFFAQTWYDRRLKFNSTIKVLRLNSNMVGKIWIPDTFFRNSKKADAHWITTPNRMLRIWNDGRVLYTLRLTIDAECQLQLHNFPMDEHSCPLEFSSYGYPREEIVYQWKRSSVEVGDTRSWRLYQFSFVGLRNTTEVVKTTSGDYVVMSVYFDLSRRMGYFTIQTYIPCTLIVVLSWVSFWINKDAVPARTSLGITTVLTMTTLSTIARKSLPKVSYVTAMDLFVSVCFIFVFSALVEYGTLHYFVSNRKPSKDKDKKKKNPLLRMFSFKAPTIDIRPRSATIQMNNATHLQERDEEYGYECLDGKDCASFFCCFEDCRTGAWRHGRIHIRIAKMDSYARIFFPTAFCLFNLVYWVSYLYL
measurement.protocol: cell-based
condition.summary: oocyte electrophysiology EC50 α3β3γ2, Xenopus laevis oocytes, human subunits, GABA at EC10
Measured pEC50, listed per entry.
Formally, pEC50 is defined as -log10 of the concentration c, with c in mol/L.

Some entries whose results are on file:
compound: O=C1C2C=Nc3ccccc3C2=NN1c1ccccc1 (centres unmarked) [CGS 8216, reference compound]
recorded.measurement: 8.70
--
compound: CC1CC(=O)c2c(C(=O)Nc3ccc(F)cc3)c[nH]c2C1 (centres unmarked)
recorded.measurement: 7.43
--
compound: CNCc1ccc(NC(=O)c2c[nH]c3c2C(=O)CCCC3)cc1
recorded.measurement: 7.29
--
compound: O=C(Nc1ccccc1)c1c[nH]c2c1C(=O)CCCC2
recorded.measurement: 7.44
--
compound: O=c1c(-c2ccccc2F)nc2c[nH]c3ccccc3n1-2
recorded.measurement: 7.64

Fill blank: measured pEC50 of the compound CCOc1ccc(-n2c(=O)c3c[nH]c4ccccc4n-3c2=O)cc1 is ____. 7.46

Value lookup for pEC50; key = O=c1c2c[nH]c3ccccc3n-2c(=O)n1-c1ccc(F)cc1 7.34

Fill blank: measured pEC50 of the compound Cc1nnc2n1-c1ccc(Cl)cc1C(c1ccccc1)=NC2 [Alprazolam, reference compound] is ____. 7.16
